system: HLA-DRB1*13:02 (Homo sapiens, UniProt P01903+P01911, A100E/A169T/K41T/L162R/M171V/P40S/Q125H/Q178H/Q39Y/Q99D/R42S/S66N/T262R/V115G/W38E/Y61H)
Sequence (P01903 26-254 limits assumed, other chains not shown): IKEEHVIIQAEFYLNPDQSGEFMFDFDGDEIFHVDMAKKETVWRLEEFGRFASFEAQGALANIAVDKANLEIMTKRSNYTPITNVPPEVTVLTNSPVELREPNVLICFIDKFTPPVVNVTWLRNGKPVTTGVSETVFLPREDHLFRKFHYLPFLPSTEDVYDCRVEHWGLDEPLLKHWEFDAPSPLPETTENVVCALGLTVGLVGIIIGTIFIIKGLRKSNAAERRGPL
test.summary: biochemical
parameter.measured: IC50 (µM)

compound | lt.gt.eq | value.reported
CC[C@H](C)[C@H](NC(=O)CN)C(=O)N[C@@H](Cc1ccc(O)cc1)C(=O)N[C@@H](CCC(N)=O)C(=O)N[C@H](C(=O)N[C@@H](CO)C(=O)N[C@@H](CC(N)=O)C(=O)N[C@@H](Cc1ccccc1)C(=O)N[C@@H](CCCNC(=N)N)C(=O)N[C@H](C(=O)N[C@@H](CCC(N)=O)C(=O)N1CCC[C@H]1C(=O)N[C@H](C(=O)N[C@@H](CCC(=O)O)C(=O)N[C@@H](CO)C(=O)O)[C@@H](C)O)C(C)C)[C@@H](C)O | = | 10.7
CC[C@H](C)[C@H](NC(=O)[C@H](Cc1ccccc1)NC(=O)[C@@H](N)CO)C(=O)N[C@@H](CCC(=O)O)C(=O)N[C@@H](CC(=O)O)C(=O)N[C@@H](CC(C)C)C(=O)N[C@@H](CC(C)C)C(=O)N[C@@H](Cc1ccccc1)C(=O)N[C@@H](CC(N)=O)C(=O)N[C@@H](CCCCN)C(=O)N[C@H](C(=O)N[C@H](C(=O)N[C@@H](CC(C)C)C(=O)N[C@@H](C)C(=O)N[C@@H](CC(=O)O)C(=O)O)[C@@H](C)O)C(C)C [peptide 164] | = | 0.174
CC[C@H](C)[C@H](NC(=O)[C@H](Cc1ccccc1)NC(=O)[C@H](CO)NC(=O)[C@H](CCCNC(=N)N)NC(=O)[C@H](CCCCN)NC(=O)[C@H](CO)NC(=O)[C@@H]1CCCN1C(=O)[C@@H](N)CCCCN)C(=O)N[C@@H](CCC(=O)O)C(=O)N[C@@H](CC(=O)O)C(=O)N[C@@H](CC(C)C)C(=O)N[C@@H](CC(C)C)C(=O)N[C@@H](Cc1ccccc1)C(=O)N[C@@H](CC(N)=O)C(=O)N[C@@H](CCCCN)C(=O)O [peptide 163] | > | 40

###

system: HLA-DRB1*04:01 (Homo sapiens, UniProt P01903+P01911, A100K/A169T/F76Y/I96L/K127E/L162R/M171V/N62H/P40V/Q125Y/R42H/S133A/S149N/S66Y/V115G/V209L/W38E)
test.summary: biochemical
Form field: IC50 (one value per entry).
parameter.measured: IC50 (µM)

compound | parameter.measured | value.reported
CC[C@H](C)[C@H](NC(=O)[C@H](CCCNC(=N)N)NC(=O)[C@H](CCCCN)NC(=O)[C@H](CCCNC(=N)N)NC(=O)[C@H](CC(N)=O)NC(=O)[C@H](Cc1c[nH]c2ccccc12)NC(=O)[C@H](C)NC(=O)[C@H](Cc1ccc(O)cc1)NC(=O)[C@@H](NC(=O)[C@H](CO)NC(=O)[C@H](C)NC(=O)[C@H](Cc1ccccc1)NC(=O)[C@@H](N)CCCNC(=N)N)C(C)C)C(=O)N[C@@H](CO)C(=O)N[C@@H](CC(N)=O)C(=O)O | IC50 | 7.89
CC[C@H](C)[C@H](NC(=O)[C@H](Cc1ccccc1)NC(=O)[C@@H](N)CO)C(=O)N[C@@H](CCC(=O)O)C(=O)N[C@@H](CC(=O)O)C(=O)N[C@@H](CC(C)C)C(=O)N[C@@H](CC(C)C)C(=O)N[C@@H](Cc1ccccc1)C(=O)N[C@@H](CC(N)=O)C(=O)N[C@@H](CCCCN)C(=O)N[C@H](C(=O)N[C@H](C(=O)N[C@@H](CC(C)C)C(=O)N[C@@H](C)C(=O)N[C@@H](CC(=O)O)C(=O)O)[C@@H](C)O)C(C)C [peptide 164] | IC50 | 1.1
CSCC[C@H](NC(=O)[C@H](CC(C)C)NC(=O)[C@H](Cc1ccccc1)NC(=O)[C@@H]1CCCN1C(=O)[C@H](CCC(N)=O)NC(=O)[C@H](CO)NC(=O)[C@@H](NC(=O)[C@H](Cc1ccc(O)cc1)NC(=O)[C@H](CCC(=O)O)NC(=O)[C@H](Cc1ccccc1)NC(=O)[C@@H](NC(=O)[C@@H](N)CS)[C@@H](C)O)C(C)C)C(=O)N[C@@H](CC(=O)O)C(=O)N[C@@H](CC(C)C)C(=O)N[C@@H](CCC(=O)O)C(=O)O [peptide 34] | IC50 | 1.15
CC(C)[C@H](NC(=O)CNC(=O)[C@H](Cc1ccc(O)cc1)NC(=O)[C@H](CS)NC(=O)[C@H](CCCCN)NC(=O)[C@H](Cc1ccccc1)NC(=O)[C@@H](NC(=O)[C@H](CO)NC(=O)[C@H](Cc1ccccc1)NC(=O)[C@H](CO)NC(=O)[C@H](C)NC(=O)[C@@H](N)CO)[C@@H](C)O)C(=O)N[C@@H](CO)C(=O)N1CCC[C@H]1C(=O)N[C@H](C(=O)O)[C@@H](C)O [peptide 75] | IC50 | 3.33
CC(C)[C@H](N)C(=O)N[C@@H](Cc1ccccc1)C(=O)N[C@@H](CC(N)=O)C(=O)N[C@@H](C)C(=O)N[C@H](C(=O)N[C@@H](CCCNC(=N)N)C(=O)N[C@@H](Cc1ccccc1)C(=O)N[C@@H](C)C(=O)N[C@@H](CO)C(=O)N[C@H](C(=O)N[C@@H](Cc1ccc(O)cc1)C(=O)N[C@@H](C)C(=O)N[C@@H](Cc1c[nH]c2ccccc12)C(=O)N[C@@H](CC(N)=O)C(=O)N[C@@H](CCCNC(=N)N)C(=O)O)C(C)C)[C@@H](C)O [peptide 69] | IC50 | 0.853
CC[C@H](C)[C@H](NC(=O)[C@H](Cc1ccccc1)NC(=O)[C@H](CO)NC(=O)[C@H](CCCNC(=N)N)NC(=O)[C@H](CCCCN)NC(=O)[C@H](CO)NC(=O)[C@@H]1CCCN1C(=O)[C@@H](N)CCCCN)C(=O)N[C@@H](CCC(=O)O)C(=O)N[C@@H](CC(=O)O)C(=O)N[C@@H](CC(C)C)C(=O)N[C@@H](CC(C)C)C(=O)N[C@@H](Cc1ccccc1)C(=O)N[C@@H](CC(N)=O)C(=O)N[C@@H](CCCCN)C(=O)O [peptide 163] | IC50 | 0.451
CC(C)C[C@H](NC(=O)[C@H](CCCNC(=N)N)NC(=O)[C@H](Cc1ccc(O)cc1)NC(=O)[C@H](CC(C)C)NC(=O)[C@@H](N)Cc1ccc(O)cc1)C(=O)N[C@@H](Cc1ccccc1)C(=O)N[C@@H](CCCNC(=N)N)C(=O)N[C@@H](CCCCN)C(=O)N[C@@H](CO)C(=O)N[C@@H](CC(N)=O)C(=O)N[C@@H](CC(C)C)C(=O)N[C@@H](CCCCN)C(=O)N1CCC[C@H]1C(=O)N[C@@H](Cc1ccccc1)C(=O)N[C@@H](CCC(=O)O)C(=O)O [peptide 91] | IC50 | 0.59

###

Form field: IC50 (one value per entry).
system: HLA-DRB1*01:01 (Homo sapiens, UniProt P01903+P01911, A100R/D57E/F55L/F60I/F76Y/I96L/L162R/M171V/P40L/Q125E/R42F/V115G/Y59C)
test.summary: biochemical
Type: binding

compound | units.of.measure | IC50
CC[C@H](C)[C@H](N)C(=O)N1CCC[C@H]1C(=O)N[C@@H](Cc1ccccc1)C(=O)N[C@@H](C)C(=O)N[C@@H](CCSC)C(=O)N[C@@H](CCC(N)=O)C(=O)N[C@@H](CCSC)C(=O)N[C@@H](C)C(=O)N[C@@H](Cc1ccc(O)cc1)C(=O)N[C@@H](CCCNC(=N)N)C(=O)N[C@@H](Cc1ccccc1)C(=O)N[C@@H](CC(N)=O)C(=O)NCC(=O)N[C@H](C(=O)NCC(=O)O)[C@@H](C)CC [peptide 180] | nM | 58
CSCC[C@H](NC(=O)[C@H](CC(C)C)NC(=O)[C@H](Cc1ccccc1)NC(=O)[C@@H]1CCCN1C(=O)[C@H](CCC(N)=O)NC(=O)[C@H](CO)NC(=O)[C@@H](NC(=O)[C@H](Cc1ccc(O)cc1)NC(=O)[C@H](CCC(=O)O)NC(=O)[C@H](Cc1ccccc1)NC(=O)[C@@H](NC(=O)[C@@H](N)CS)[C@@H](C)O)C(C)C)C(=O)N[C@@H](CC(=O)O)C(=O)N[C@@H](CC(C)C)C(=O)N[C@@H](CCC(=O)O)C(=O)O [peptide 34] | nM | 495

###

system: HLA-DRB1*15:01 (Homo sapiens, UniProt P01903+P01911)
test.summary: biochemical
Type: binding
Form field: IC50 (one value per entry).
parameter.measured: IC50 (µM)

molecule | system | units.of.measure | value.reported
CC(C)[C@H](N)C(=O)N[C@@H](Cc1ccccc1)C(=O)N[C@@H](CC(N)=O)C(=O)N[C@@H](C)C(=O)N[C@H](C(=O)N[C@@H](CCCNC(=N)N)C(=O)N[C@@H](Cc1ccccc1)C(=O)N[C@@H](C)C(=O)N[C@@H](CO)C(=O)N[C@H](C(=O)N[C@@H](Cc1ccc(O)cc1)C(=O)N[C@@H](C)C(=O)N[C@@H](Cc1c[nH]c2ccccc12)C(=O)N[C@@H](CC(N)=O)C(=O)N[C@@H](CCCNC(=N)N)C(=O)O)C(C)C)[C@@H](C)O [peptide 69] | HLA-DRB1*15:01 (Homo sapiens, UniProt P01903+P01911) | µM | 0.012
CC[C@H](C)[C@H](NC(=O)[C@H](CC(=O)O)NC(=O)CNC(=O)[C@H](CC(C)C)NC(=O)[C@H](CS)NC(=O)[C@H](CC(=O)O)NC(=O)CNC(=O)[C@H](Cc1ccc(O)cc1)NC(=O)[C@H](CCC(N)=O)NC(=O)[C@H](CCCCN)NC(=O)[C@@H](NC(=O)[C@H](Cc1ccccc1)NC(=O)CNC(=O)[C@H](C)N)[C@@H](C)CC)C(=O)N[C@@H](C)C(=O)O [peptide 167] | HLA-DRB1*15:01 (Homo sapiens, UniProt P01903+P01911) | µM | 0.716
CC[C@H](C)[C@H](NC(=O)[C@H](CCCNC(=N)N)NC(=O)[C@H](CCCCN)NC(=O)[C@H](CCCNC(=N)N)NC(=O)[C@H](CC(N)=O)NC(=O)[C@H](Cc1c[nH]c2ccccc12)NC(=O)[C@H](C)NC(=O)[C@H](Cc1ccc(O)cc1)NC(=O)[C@@H](NC(=O)[C@H](CO)NC(=O)[C@H](C)NC(=O)[C@H](Cc1ccccc1)NC(=O)[C@@H](N)CCCNC(=N)N)C(C)C)C(=O)N[C@@H](CO)C(=O)N[C@@H](CC(N)=O)C(=O)O [compound 70] | HLA-DRB1*15:01 (Homo sapiens, UniProt P01903+P01911) | µM | 0.136
CC[C@H](C)[C@H](NC(=O)CN)C(=O)N[C@@H](Cc1ccc(O)cc1)C(=O)N[C@@H](CCC(N)=O)C(=O)N[C@H](C(=O)N[C@@H](CO)C(=O)N[C@@H](CC(N)=O)C(=O)N[C@@H](Cc1ccccc1)C(=O)N[C@@H](CCCNC(=N)N)C(=O)N[C@H](C(=O)N[C@@H](CCC(N)=O)C(=O)N1CCC[C@H]1C(=O)N[C@H](C(=O)N[C@@H](CCC(=O)O)C(=O)N[C@@H](CO)C(=O)O)[C@@H](C)O)C(C)C)[C@@H](C)O [compound 63] | HLA-DRB1*15:01 (Homo sapiens, UniProt P01903+P01911) | µM | 0.021
CC(C)C[C@H](NC(=O)[C@H](CCCNC(=N)N)NC(=O)[C@H](Cc1ccc(O)cc1)NC(=O)[C@H](CC(C)C)NC(=O)[C@@H](N)Cc1ccc(O)cc1)C(=O)N[C@@H](Cc1ccccc1)C(=O)N[C@@H](CCCNC(=N)N)C(=O)N[C@@H](CCCCN)C(=O)N[C@@H](CO)C(=O)N[C@@H](CC(N)=O)C(=O)N[C@@H](CC(C)C)C(=O)N[C@@H](CCCCN)C(=O)N1CCC[C@H]1C(=O)N[C@@H](Cc1ccccc1)C(=O)N[C@@H](CCC(=O)O)C(=O)O [peptide 91] | HLA-DRB1*15:01 (Homo sapiens, UniProt P01903+P01911) | µM | 0.0017
